# system: native mouse MET on living mouse cells (mouse, UniProt P16056 25-1379)
# procedure-text: cell-based or functional assay
Here the recorded cell scattering score, MLP29, 1.000 nM is given for each entry.
readout-label: cell scattering score, MLP29, 1.000 nM (score 0-4)

chimeric llama-human IgG1 mAb 71G3 (antibody, V domains shown) VH: QVQLVESGGGLVQPGGSLRVSCAASGFTFSTYYMSWVRQAPGKGLEWVSDIRTDGGTYYADSVKGRFTMSRDNAKNTLYLQMNSLKPEDTALYYCARTRIFPSGYDYWGQGTQVTVSS VL: QAVVTQEPSLSVSPGGTVTLTCGLSSGSVTTSNYPGWFQQTPGQAPRTLIYNTNSRHSGVPSRFSGSISGNKAALTIMGAQPEDEADYYCSLYPGSTTVFGGGTHLTVL ... 4
chimeric llama-human IgG1 mAb 71A3 (antibody, V domains shown) VH: EVQLVESGGGLVQPGGSLRLSCAASGFSFKDYDITWVRQAPGKGLEWVSTITSRSGSTSYVDSVKGRFTISGDNAKNTLYLQMNSLKPEDTAVYYCAKVYATTWDVGPLGYGMDYWGKGTLVTVSS VL: SYELTQPSALSVTLGQTAKITCQGGSLGSSYAHWYQQKPGQAPVLVIYDDDSRPSGIPERFSGSSSGGTATLTISGAQAEDEGDYYCQSADSSGNAAVFGGGTHLTVL ... 4
chimeric llama-human IgG1 mAb 76G7 (antibody, V domains shown) VH: QVQLVESGGNLVQPGGSLRLSCAASGFTFSNYYMSWVRQAPGKGLEWVSDIYSDGSTTWYSDSVKGRFTISRDNAKNTLSLQMNSLKSEDTAVYYCARVKIYPGGYDAWGQGTQVTVSS VL: QAGLTQPPSVSGSPGKTVTISCAGNSSDVGYGNYVSWYQQFPGMAPKLLIYLVNKRASGITDRFSGSKSGNTASLTISGLQSEDEADYYCASYTGSNNIVFGGGTHLTVL ... 1
chimeric llama-human IgG1 mAb 71C3 (antibody, V domains shown) VH: QLQLVESGGGLVQPGGSLRLSCAASGFTFSSHAMSWVRQAPGKGLEWVSAINSGGGSTSYADSVKGRFTISRDNAKNTLYLQMNSLKPEDTAVYYCAKELRFDLARYTDYEAWDYWGQGTQVTVSS VL: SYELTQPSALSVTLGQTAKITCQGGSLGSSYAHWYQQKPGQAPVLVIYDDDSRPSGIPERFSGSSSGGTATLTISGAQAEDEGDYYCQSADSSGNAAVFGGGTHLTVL ... 3
chimeric llama-human IgG1 mAb 74C8 (antibody, V domains shown) VH: EVQLVESGGGLVQPGGSLRLSCAASGFTFRNYHMSWVRQVPGKGFEWISDINSAGGSTYYADSVKGRFTISRDNAKNTLYLEMNSLKPEDTALYYCARVNVWGVNYWGKGTLVSVSS VL: QTVVTQEPSLSVSPGGTVTLTCGLSSGSVTTSNYPGWFQQTPGQAPRTLIYNTNSRHSGVPSRFSGSISGNKAALTITGAQPEDEADYYCSLYPGSYTNVFGGGTHLTVL ... 3
